Provenance of the data: patent US10442763B2

# Measured target: His-EBNA1 (DNA binding domain of EBNA1, amino acids 459-607) (Epstein-Barr virus, UniProt P03211)
# Construct: made in house; host or cells: E. coli
# Sequence (P03211 459-607): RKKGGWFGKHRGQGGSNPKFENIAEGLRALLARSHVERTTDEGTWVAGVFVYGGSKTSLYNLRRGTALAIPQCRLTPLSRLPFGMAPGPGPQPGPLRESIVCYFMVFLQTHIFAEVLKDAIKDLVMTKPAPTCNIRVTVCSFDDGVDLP
# Experiment: Inhibition of 5'-biotin-oPL4624 binding to His-EBNA1 using Alpha Screen technology
pIC50: −log10 of the molar value.
Outcome measure: pIC50

Lab note: each molecule below needs its pIC50 filled in.
1. CS(=O)(=O)c1ccc(OCc2ccc(C#Cc3cccc(C(=O)O)c3-c3ccc4cc[nH]c4c3)cc2)cc1
2. O=C(O)c1cccc(C#Cc2ccc(CN3CCCC(C(F)(F)F)C3)cc2)c1-c1ccc2cc[nH]c2c1 (centres unmarked)
3. COCCN(C)Cc1ccc(C#Cc2cccc(C(=O)O)c2-c2ccc3cc[nH]c3c2)cc1
4. CS(=O)(=O)N1CCC(CN2Cc3ccc(C#Cc4cccc(C(=O)O)c4-c4ccc5cc[nH]c5c4)cc3C2)CC1
5. CC(=O)N1CCC(CN2CCc3ccc(C#Cc4cccc(C(=O)O)c4-c4ccc5cc[nH]c5c4)cc3C2)C1 (centres unmarked)

1. 5.00 to 6.00
2. 5.00 to 6.00
3. 4.00 to 5.00
4. 4.00 to 5.00
5. 4.00 to 5.00

# per-item lookup of pIC50; items listed below
1. O=C(O)c1cccc(C#Cc2cc3ccn(CC4CCS(=O)(=O)CC4)c3cc2F)c1-c1ccc2cc[nH]c2c1
2. O=C(O)c1cccc(C#Cc2ccc(-c3nn[nH]n3)cc2)c1-c1ccc2cc[nH]c2c1
3. O=C(O)c1cccc(C#Cc2ccc(OC3CCOCC3)nc2)c1-c1ccc2cc[nH]c2c1

["5.00 to 6.00", "> 6.00", "5.00 to 6.00"]
